Molecular target: human GPR139 receptor (Homo sapiens, UniProt Q6DWJ6)
Construct: expressed in transfected cells; host or cells: T-REx-CHO (Thermo Fisher Scientific), doxycycline-induced
Sequence (Q6DWJ6 1-353): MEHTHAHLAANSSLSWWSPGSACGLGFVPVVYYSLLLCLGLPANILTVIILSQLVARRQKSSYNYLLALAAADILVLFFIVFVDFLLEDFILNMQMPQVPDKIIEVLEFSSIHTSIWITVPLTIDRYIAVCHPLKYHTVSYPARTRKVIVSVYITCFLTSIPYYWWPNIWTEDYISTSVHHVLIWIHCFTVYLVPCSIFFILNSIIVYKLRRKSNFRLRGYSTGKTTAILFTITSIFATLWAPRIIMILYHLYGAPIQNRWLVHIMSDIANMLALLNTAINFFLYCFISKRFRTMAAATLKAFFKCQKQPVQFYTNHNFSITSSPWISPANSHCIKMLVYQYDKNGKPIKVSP
Assay: Measurement of GPR139 Activation Via Calcium Signaling (FLIPR, T-REx-CHO cells)
Format: cell-based
Conditions: T-REx-CHO cells stably expressing human GPR139, 11-point dose response, 10 μM maximum concentration, read-out: GPR139 Potency (pEC50) (converted)
Source text: Measurement of GPR139 Activation Via Calcium Signaling This cell-based assay measures the ability of compounds to activate GPR139 in stably transfected T-REx™-CHO cells. T-REx™-CHO cells (Thermo Fisher Scientific®) are stably expressed with human GPR139 receptor, whose expression is controlled by a tetracycline-inducible element. […]
property: EC50 (µM)

[1] COc1ccc([C@H](C)NC(=O)Cn2ncc3c(c(C)nn3C)c2=O)c(F)c1
[2] COc1ccc([C@H](C)NC(=O)Cn2ncc3c(c(C4CC4)nn3C(C)C)c2=O)cc1
Inquiry: In the pair 1 and 2 , the larger recorded EC50 belongs to which? Identify your pick by its label.
Reply text: 2

[I] Cc1nn(CC(=O)NC(C)c2ccc3c(c2)OCCO3)c(=O)c2c1c(C)nn2C1CC1 (centres unmarked)
[II] C[C@H](NC(=O)Cn1ncc2ncn(C)c2c1=O)c1ccc(C(F)(F)F)cc1
[III] COc1cc([C@H](C)NC(=O)Cn2ncc3c(c(C)nn3C3CC3)c2=O)ccc1F
[IV] COc1ccc([C@H](C)NC(=O)Cn2ncc3c(c(C(C)C)nn3C)c2=O)cc1
Inquiry: Order the records, beginning with the lowest EC50 and ending with the highest. Record the ranking as a list of labels in the requested order.
Reply text: IV, I, II, III
(IV: 0.055 µM, I: 0.107 µM, II: 0.257 µM, III: 0.708 µM)

====

molecular target: human GPR139 receptor (Homo sapiens); construct: expressed in transfected cells; host or cells: T-REx-CHO (Thermo Fisher Scientific), doxycycline-induced; assay: Measurement of GPR139 Activation Via Calcium Signaling (FLIPR, T-REx-CHO cells); format: cell-based; settings: T-REx-CHO cells stably expressing human GPR139, 11-point dose response, 10 μM maximum concentration, read-out: GPR139 Potency (pEC50) (converted)
property: EC50 (nM)

Inquiry: Which EC50 value belongs to C[C@H](NC(=O)Cn1ncc2c(C3CC3)cn(C)c2c1=O)c1ccc(C(F)(F)F)cc1 ?
Reply text: 100

Inquiry: Which EC50 value belongs to Cc1ccc([C@H](C)NC(=O)Cn2nc(C)c3c(C)nn(C4CC4)c3c2=O)cc1F ?
Reply text: 69.2

Inquiry: Which EC50 value belongs to Cc1ccc([C@H](C)NC(=O)Cn2nc(C)c3c(C)nn(C4CC4)c3c2=O)cc1 ?
Reply text: 105

Inquiry: Which EC50 value belongs to Cc1ccc([C@H](C)NC(=O)Cn2ncc3c(cnn3C3CC3)c2=O)c(F)c1 ?
Reply text: 58.9

Inquiry: Which EC50 value belongs to Cc1ccc([C@H](C)NC(=O)Cn2nc(C)c3c(c(C)nn3C(C)C)c2=O)cc1 ?
Reply text: 83.2

[I] Cc1ccc([C@H](C)NC(=O)Cn2ncc3c(c(C4CC4)nn3C)c2=O)cc1
[II] Cc1ccc([C@H](C)NC(=O)Cn2ncc3c(c(C)nn3C3CC3)c2=O)cc1
Inquiry: // select label with min value of measured EC50 from [ I , II ] Identify your pick by its label.
Reply text: I

[I] Cc1nn(CC(=O)NC(C)c2ccc3c(c2)CCCO3)c(=O)c2c1c(C)nn2C1CC1 (stereo not shown)
[II] Cc1ccc([C@H](C)NC(=O)Cn2ncc3c(c(C)cn3C3CC3)c2=O)c(C)c1
Inquiry: // select label with min value of measured EC50 from [ I , II ] Identify your pick by its label.
Reply text: II

Cited source: patent US12370192B2
